tested-target: P2rx2 (rat)
assay-comment: reporter assay of Huesken 2005
recorded-conditions: siRNA
Oligonucleotides are written 5' to 3', each unit as a sugar letter and its base; * is a phosphorothioate linkage, no mark a phosphodiester; rarer units and linkages stand in square brackets, end groups in braces. Plain capitals give the bases only. d = 2'-deoxy (DNA); r = 2'-OH (RNA)
# if value of normalised inhibition (eCFP-eYFP dual reporter) reaches 60%, tag 1.0; if it stays below, tag 0.0

// below: answered substances
{"substance": "sense rCrUrArCrCrCrCrArArGrUrUrCrArArGrUrUrCdTdT / antisense rGrArArCrUrUrGrArArCrUrUrGrGrGrGrUrArGdTdG", "label-value": 1.0}
{"substance": "sense rUrCrArUrCrArArUrCrUrGrGrCrCrArCrUrGrCdTdT / antisense rGrCrArGrUrGrGrCrCrArGrArUrUrGrArUrGrAdTdG", "label-value": 0.0}

Please tell me: is the substance sense rUrCrCrCrArGrArCrCrUrUrGrGrGrArArCrArUdTdT / antisense rArUrGrUrUrCrCrCrArArGrGrUrCrUrGrGrGrAdAdG at or over 60% in terms of normalised inhibition (eCFP-eYFP dual reporter)?
0.0

Please tell me: is the substance sense rGrArCrCrCrUrGrCrCrUrCrCrUrCrArGrGrCrUdTdT / antisense rArGrCrCrUrGrArGrGrArGrGrCrArGrGrGrUrCdAdT at or over 60% in terms of normalised inhibition (eCFP-eYFP dual reporter)?
1.0

Please tell me: is the substance sense rCrCrArArGrArCrCrUrGrCrGrArGrGrUrGrUrCdTdT / antisense rGrArCrArCrCrUrCrGrCrArGrGrUrCrUrUrGrGdAdG at or over 60% in terms of normalised inhibition (eCFP-eYFP dual reporter)?
1.0

Please tell me: is the substance sense rArGrCrArUrArUrGrGrGrArCrArArArGrArCrCdTdT / antisense rGrGrUrCrUrUrUrGrUrCrCrCrArUrArUrGrCrUdGdG at or over 60% in terms of normalised inhibition (eCFP-eYFP dual reporter)?
0.0

Please tell me: is the substance sense rUrCrArArGrUrArGrArUrGrGrCrCrUrGrUrGrAdTdT / antisense rUrCrArCrArGrGrCrCrArUrCrUrArCrUrUrGrAdGdG at or over 60% in terms of normalised inhibition (eCFP-eYFP dual reporter)?
1.0

Please tell me: is the substance sense rGrArUrCrArGrGrArCrUrCrUrGrArCrCrCrArUdTdT / antisense rArUrGrGrGrUrCrArGrArGrUrCrCrUrGrArUrCdAdA at or over 60% in terms of normalised inhibition (eCFP-eYFP dual reporter)?
1.0

* * *

tested-target: MRFAP1
assay-comment: reporter assay of Huesken 2005
recorded-conditions: siRNA
Oligonucleotides are written 5' to 3', each unit as a sugar letter and its base; * is a phosphorothioate linkage, no mark a phosphodiester; rarer units and linkages stand in square brackets, end groups in braces. Plain capitals give the bases only. d = 2'-deoxy (DNA); r = 2'-OH (RNA)
Kindly supply the reported normalised inhibition (eCFP-eYFP dual reporter) values for the records listed here.
One number for each entry, in %.

Some entries whose results are on file:
{"substance": "sense rArCrUrCrGrGrCrCrCrGrArGrCrUrCrGrGrUrCdTdT / antisense rGrArCrCrGrArGrCrUrCrGrGrGrCrCrGrArGrUdCdT", "result": 61.5}
{"substance": "sense rGrArGrGrArCrUrCrCrArUrGrCrArGrCrArArUdTdT / antisense rArUrUrGrCrUrGrCrArUrGrGrArGrUrCrCrUrCdTdT", "result": 44.8}
{"substance": "sense rCrUrUrGrUrUrCrGrUrCrUrGrUrArCrArArGrUdTdT / antisense rArCrUrUrGrUrArCrArGrArCrGrArArCrArArGdAdC", "result": 54.3}
{"substance": "sense rCrUrUrGrGrArGrUrUrGrGrArGrCrUrCrArCrCdTdT / antisense rGrGrUrGrArGrCrUrCrCrArArCrUrCrCrArArGdTdC", "result": 55.2}
{"substance": "sense rUrUrUrGrGrGrUrCrCrCrUrGrUrGrArCrArCrUdTdT / antisense rArGrUrGrUrCrArCrArGrGrGrArCrCrCrArArAdGdT", "result": 50.8}

Let us move to another entry and its normalised inhibition (eCFP-eYFP dual reporter).
For the substance sense rCrCrCrArGrGrGrCrGrGrArGrArArGrGrCrCrGdTdT / antisense rCrGrGrCrCrUrUrCrUrCrCrGrCrCrCrUrGrGrGdGdC , what normalised inhibition (eCFP-eYFP dual reporter) is on record?
65.6

* * *

tested-target: UBE2B
assay-comment: reporter assay of Huesken 2005
recorded-conditions: siRNA
Oligonucleotides are written 5' to 3', each unit as a sugar letter and its base; * is a phosphorothioate linkage, no mark a phosphodiester; rarer units and linkages stand in square brackets, end groups in braces. Plain capitals give the bases only. d = 2'-deoxy (DNA); r = 2'-OH (RNA)
Kindly supply the reported normalised inhibition (eCFP-eYFP dual reporter) values for the records listed here.
Answers are plain numbers, in %.

{"substance": "sense rUrArUrGrUrUrUrArGrArUrArUrCrCrUrUrCrAdTdT / antisense rUrGrArArGrGrArUrArUrCrUrArArArCrArUrAdTdG", "result": 63.5}
{"substance": "sense rArArCrArUrCrArUrGrCrArGrUrGrGrArArUrGdTdT / antisense rCrArUrUrCrCrArCrUrGrCrArUrGrArUrGrUrUdGdT", "result": 55}
{"substance": "sense rCrArGrCrArCrArGrCrUrUrUrArUrCrArGrGrAdTdT / antisense rUrCrCrUrGrArUrArArArGrCrUrGrUrGrCrUrGdCdC", "result": 77.5}
{"substance": "sense rArCrCrUrGrUrGrGrGrUrGrUrCrArGrUrGrGrCdTdT / antisense rGrCrCrArCrUrGrArCrArCrCrCrArCrArGrGrUdGdG", "result": 76.7}
{"substance": "sense rGrCrUrGrGrArUrGrArArCrCrGrArArUrCrCrUdTdT / antisense rArGrGrArUrUrCrGrGrUrUrCrArUrCrCrArGrCdAdG", "result": 81.5}
{"substance": "sense rUrUrArArArCrUrArGrUrArArUrArGrArArUrUdTdT / antisense rArArUrUrCrUrArUrUrArCrUrArGrUrUrUrArAdAdA", "result": 46.7}

Quick request: normalised inhibition (eCFP-eYFP dual reporter) for each listed item, please.
1. sense rArArArArGrArGrUrUrUrCrGrGrCrCrArUrUrGdTdT / antisense rCrArArUrGrGrCrCrGrArArArCrUrCrUrUrUrUdCdT
2. sense rUrCrUrGrArArArArCrArArCrArUrCrArUrGrCdTdT / antisense rGrCrArUrGrArUrGrUrUrGrUrUrUrUrCrArGrAdTdG
3. sense rCrArGrGrArArArArCrArArArCrGrArGrArArUdTdT / antisense rArUrUrCrUrCrGrUrUrUrGrUrUrUrUrCrCrUrGdAdT
4. sense rArGrUrCrUrCrUrGrCrUrGrGrArUrGrArArCrCdTdT / antisense rGrGrUrUrCrArUrCrCrArGrCrArGrArGrArCrUdGdA
5. sense rCrArGrArArUrCrGrArUrGrGrArGrUrCrCrArAdTdT / antisense rUrUrGrGrArCrUrCrCrArUrCrGrArUrUrCrUrGdAdA
6. sense rCrArUrArUrGrArUrGrUrArUrCrUrUrCrUrArUdTdT / antisense rArUrArGrArArGrArUrArCrArUrCrArUrArUrGdTdT
7. sense rCrCrArArArArUrGrUrUrUrCrArUrCrCrArArAdTdT / antisense rUrUrUrGrGrArUrGrArArArCrArUrUrUrUrGrGdAdT
8. sense rArCrArArGrArGrGrArCrCrCrArCrCrUrGrUrGdTdT / antisense rCrArCrArGrGrUrGrGrGrUrCrCrUrCrUrUrGrUdAdA

1. 49.2
2. 48.3
3. 84
4. 53.1
5. 86.3
6. 83.9
7. 84.6
8. 61.1

Quick request: normalised inhibition (eCFP-eYFP dual reporter) for each listed item, please.
1. sense rGrArArUrArUrGrArGrArArArArGrArGrUrUrUdTdT / antisense rArArArCrUrCrUrUrUrUrCrUrCrArUrArUrUrCdTdC
2. sense rGrArArCrCrGrArArUrCrCrUrArArCrArGrUrCdTdT / antisense rGrArCrUrGrUrUrArGrGrArUrUrCrGrGrUrUrCdAdT
3. sense rGrArArUrCrGrArUrGrGrArGrUrCrCrArArCrAdTdT / antisense rUrGrUrUrGrGrArCrUrCrCrArUrCrGrArUrUrCdTdG
4. sense rGrUrArUrGrCrUrGrArUrGrGrUrArGrCrArUrAdTdT / antisense rUrArUrGrCrUrArCrCrArUrCrArGrCrArUrArCdAdC
5. sense rGrUrUrUrCrGrGrCrCrArUrUrGrUrUrGrArArCdTdT / antisense rGrUrUrCrArArCrArArUrGrGrCrCrGrArArArCdTdC
6. sense rGrArArGrArArUrArUrCrCrArArArUrArArArCdTdT / antisense rGrUrUrUrArUrUrUrGrGrArUrArUrUrCrUrUrCdAdG

78.7
72.7
84.1
75.7
61.6
77.7
